molecular target: Dual specificity protein kinase CLK2 (Homo sapiens) (UniProt P49760); details: at 0.1 µM
Sequence (P49760 whole entry, looked up): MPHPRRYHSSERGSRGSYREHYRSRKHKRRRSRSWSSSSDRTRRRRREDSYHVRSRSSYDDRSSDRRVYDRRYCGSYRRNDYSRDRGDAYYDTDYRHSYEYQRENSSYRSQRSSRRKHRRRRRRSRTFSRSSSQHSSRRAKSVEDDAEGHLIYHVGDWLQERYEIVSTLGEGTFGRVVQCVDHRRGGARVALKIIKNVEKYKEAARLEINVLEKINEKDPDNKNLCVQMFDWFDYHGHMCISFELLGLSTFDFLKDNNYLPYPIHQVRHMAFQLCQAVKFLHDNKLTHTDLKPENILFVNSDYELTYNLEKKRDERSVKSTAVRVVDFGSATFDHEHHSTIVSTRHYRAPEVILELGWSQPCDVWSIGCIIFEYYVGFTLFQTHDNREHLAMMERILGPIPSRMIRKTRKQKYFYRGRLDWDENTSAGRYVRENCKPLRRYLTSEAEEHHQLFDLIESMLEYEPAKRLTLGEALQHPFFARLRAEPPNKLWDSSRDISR
Description: GSK_PKIS: CLK2 mean inhibition at 0.1 uM [Nanosyn]
# key: entry, value: inhibition

| compound | units.symbol | inhibition |
| --- | --- | --- |
| c1ccc(Oc2ccc(Nc3ncc(-c4ccccc4)o3)cc2)cc1 | % | -0.16 |
| O=C(Nc1n[nH]c2nc(-c3ccco3)ccc12)C1CC1 | % | -0.38 |
| COc1cc(C)c(N(C)C(=O)CN(C)C)cc1Nc1nc(Nc2cccc(F)c2C(N)=O)c2cc[nH]c2n1 | % | 2.65 |
| Nc1nccc(-c2c(-c3ccc(F)cc3)ncn2C2CCC(O)CC2)n1 (stereo not given) | % | 1.54 |
| NC(=O)c1cc(-c2ccc(F)cc2)cc(-c2ccncc2)c1N | % | 0.69 |

Cited source: ChEMBL document CHEMBL1961873
